Tested on: Leishmania donovani
procedureDetails: Leishmania intramacrophage assay
Type: functional, organism-based
Set-up: scale not given: in the data most compounds retested in dose-response had high values
cond: 30.3 µM; […]
Screen size: about 69,000 compounds; about 1,000 (1.4%) showed an effect of 50% or more. For the sample, strong results were picked, then their nearest neighbours and some compounds at random.

compound	endpointUnit	Percent Effect
CC(C)N(C)Cc1cn2c(n1)CN(C(=O)c1ccc[nH]1)CC2	%	13.65
Cc1cn2c(n1)C(CNCc1ccc(C)s1)CCC2 (configuration not stated)	%	-5.269
Cc1cn2c(n1)C(CNCC1=Cc3cc(Cl)ccc3OC1)CCC2 (configuration not stated)	%	69.51
CCc1ncc(C(=O)NCCNc2ncnc3sccc23)s1	%	26.76
COCCN1CCN(CC(=O)NC2(C#N)CCCC2)CC1	%	21.7
Cc1ccsc1CCNC(=O)CCC(=O)NC1CCCC1	%	16.22
O=C([C@H]1CCCO1)N1CCc2ncc(CN3CCOCC3)n2CC1	%	32.4
CC(=O)c1cccc(-n2nc(C(C)=O)c(C(C)=O)c2C)c1	%	-0.2536
c1csc(CCC2CCCCN2Cc2noc(C3CC3)n2)c1 (configuration not stated)	%	-14.11
Cc1noc(CNc2c(N3CCCC3)cccc2N2CCCC2)n1	%	45.54
Fc1cnccc1CN1CCCC2(CCN(c3ncccn3)CC2)C1.O=C(O)C(F)(F)F	%	6.498
COc1ccc(-c2n[nH]c(C)c2CC(=O)NCCN2CCOCC2)cc1	%	-10.63

----------
System: Leishmania donovani
procedureDetails: Leishmania intramacrophage assay
Format: functional, organism-based
Parameters: scale not given: in the data most compounds retested in dose-response had high values
cond: 30.3 µM; […]
About 1,000 (1.4%) of roughly 69,000 compounds showed an effect of 50% or more. What follows is part of a selection rich in strong results, with near analogues and random picks from the rest.
observationType: Percent Effect (%)

molecule	endpointUnit	readoutNumber
COCC1CN(c2ncc(F)cn2)Cc2cnn(C)c21.O=C(O)C(F)(F)F.O=C(O)C(F)(F)F (stereo unspecified)	%	22.2
Cc1ccc(F)c(C(=O)Nc2cccc(CCN3CCCC3)c2)c1	%	51.62
Cc1nccc(-c2ccccc2)c1C(=O)N1CCC2(CCCO2)CC1	%	-0.7591
Cc1nc(CN(C)C)cc(N2CCCC(COc3ccc(F)cc3)C2)n1 (stereo unspecified)	%	-8.427
Cn1cc(C(=O)Nc2cccc(CCN3CCCC3)c2)ccc1=O	%	25.83
Cc1cnc(CN2CCN(c3nc(C)cs3)C(C)C2)cn1 (stereo unspecified)	%	-40.38
CCOC(=O)Cc1n[nH]c(-c2cncc(Br)c2)n1	%	100.5
CNC(=O)c1ccnc(N2CCCC(COc3cccc(C)c3)C2)c1 (stereo unspecified)	%	30.74
CCn1ncc2c1C(COC)CN(c1ncc(F)cn1)C2.O=C(O)C(F)(F)F.O=C(O)C(F)(F)F (stereo unspecified)	%	50.28
Cn1c(CCNC(=O)C2CCCN(C3CCOCC3)C2)n[nH]c1=O (stereo unspecified)	%	60.82
O=C(NCCc1c[nH]cn1)C1CCCN(C2CCOCC2)C1 (stereo unspecified)	%	-4.763

----------
Measured Percent Effect, listed per entry.
Test system: Leishmania donovani
procedureDetails: Leishmania intramacrophage assay
Format: functional, organism-based
Parameters: scale not given: in the data most compounds retested in dose-response had high values
cond: 30.3 µM; […]
The campaign covered roughly 69,000 compounds. About 1,000 (1.4%) showed an effect of 50% or more. This excerpt belongs to a sample that is enriched for strong results.

molecule	measuredOn	endpointUnit	Percent Effect
Cc1noc([C@@H]2CC[C@@H]3[C@@H](CCN3c3nnc(C)s3)O2)n1.O=C(O)C(F)(F)F	Leishmania donovani	%	50.59
Cn1ccc(C(=O)Nc2nc(-c3ccc4c(c3)CCO4)cs2)cc1=O	Leishmania donovani	%	32.33
CCOC1(C)C(=O)c2ccccc2N1Nc1ccccc1C(=O)CC (stereo not given)	Leishmania donovani	%	19.56
Cc1noc([C@H]2C[C@@H]3CCN(c4nnc(C)s4)C[C@H]3O2)n1.O=C(O)C(F)(F)F	Leishmania donovani	%	7.673
COc1ccc2c(c1)c(-c1nc(C)ncc1CN)cn2C	Leishmania donovani	%	49

----------
System: Leishmania donovani
procedureDetails: Leishmania intramacrophage assay
Format: functional, organism-based
Design: scale not given: in the data most compounds retested in dose-response had high values
cond: 30 µM
In all, about 69,000 compounds went through this assay and about 1,000 (1.4%) showed an effect of 50% or more. Shown is part of a subset that was picked to be rich in strong results.

compound	measuredOn	endpointUnit	Percent Effect
COc1c(C)cc(CNCc2ccnc(N3CCOCC3)c2)cc1C.Cl	Leishmania donovani	%	54.99
c1ccc(Cc2nc(CN3CCCC3Cn3cncn3)cs2)cc1 (configuration not stated)	Leishmania donovani	%	-0.1933
COc1cc(CNCc2ccnc(N3CCOCC3)c2)cc(OC)c1	Leishmania donovani	%	28.31
CC(O)CN1CCC(CNCc2cccc(OC(F)(F)F)c2)CC1 (configuration not stated)	Leishmania donovani	%	66.17
Cc1cc(C(=O)N2CCCCC2C)ccc1NC(=O)N1CCOCC1 (configuration not stated)	Leishmania donovani	%	22
CCOc1ccccc1OC1CCN(Cc2ccn(C)c(=O)c2)CC1	Leishmania donovani	%	5.552
CCc1nc2n(n1)CC(NCc1nc(-c3ccccn3)no1)CC2 (configuration not stated)	Leishmania donovani	%	-15.89
CC(CNC(=O)Nc1cn[nH]c1)N1CCCC1 (configuration not stated)	Leishmania donovani	%	4.879
CC(O)CN1CCC(CNCc2ccccc2C(F)(F)F)CC1 (configuration not stated)	Leishmania donovani	%	19.95
COc1c(CNC2CCc3c(F)cccc32)c(C)nn1C.Cl (configuration not stated)	Leishmania donovani	%	34.02
CCc1ocnc1C(=O)N1CCCC(n2nc(C)nc2C)C1 (configuration not stated)	Leishmania donovani	%	15.71
OC(CN1CCC(c2ccn[nH]2)CC1)c1ccccc1F (configuration not stated)	Leishmania donovani	%	30.71

----------
Test system: Leishmania donovani
procedureDetails: Leishmania intramacrophage assay
Type: functional, organism-based
Parameters: scale not given: in the data most compounds retested in dose-response had high values
cond: 30.3 µM; […]
The campaign covered roughly 69,000 compounds. About 1,000 (1.4%) showed an effect of 50% or more. This is one part of a sample in which strong results are shown more often than they occur.
This section presents compounds with their documented Percent Effect values.
observationType: Percent Effect (%)

compound	observationType	readoutNumber
C/N=C1\c2cc3cc(OC)ccc3n2CCN1Cc1ccccc1.O=C(O)C(F)(F)F	Percent Effect	57.81
COCCN1CCC2(CC1)CC(NCc1cncn1C)c1ccccc12.O=C(O)C(F)(F)F.O=C(O)C(F)(F)F (stereo unspecified)	Percent Effect	17.77
COCCC(=O)N1C[C@@H](c2ccc(F)c(F)c2)[C@@]2(CCCC(=O)N2)C1	Percent Effect	28.03
CC(NCc1ccc(OCC(N)=O)cc1)c1ccc2c(c1)CCCC2 (stereo unspecified)	Percent Effect	72.53
Cn1ccc(CN2CCC3(CCCN3CC3CC3)CC2)n1.O=C(O)C(F)(F)F.O=C(O)C(F)(F)F	Percent Effect	41.38
C/N=C1/c2cc3cc(OC)ccc3n2CCN1Cc1ccccc1.Cl	Percent Effect	64.09
NC1(CN2CCCCC2)CCCCC1	Percent Effect	-14.65
Cc1ccc(CNC2CC3(CCN(CCO)CC3)c3ccccc32)s1.O=C(O)C(F)(F)F.O=C(O)C(F)(F)F (stereo unspecified)	Percent Effect	81.48
COCCN1CCC2(CC1)CC(NC(=O)CN(C)C)c1ccccc1O2.O=C(O)C(F)(F)F.O=C(O)C(F)(F)F (stereo unspecified)	Percent Effect	52.21
C/N=C1\c2cc3cc(OC)ccc3n2CCN1C.Cl	Percent Effect	10.14
CCC[C@H]1CN(CCS(C)(=O)=O)C[C@@H]1NC(=O)c1cc(CC)on1	Percent Effect	-7.054
COCC(=O)NC1CC2(CCN(CCO)CC2)c2ccccc21.O=C(O)C(F)(F)F (stereo unspecified)	Percent Effect	8.463
CC(NCc1ccc(OCC(N)=O)cc1)c1ccc(Cl)cc1.Cl (stereo unspecified)	Percent Effect	32.34
COc1ccccc1CN1C(=O)O[C@@H]2CN(Cc3cccc(C)n3)C[C@@H]21	Percent Effect	-18.87
CCC(=O)N1CCC2(CC1)CC(N1CCOCC1)c1cc(C)ccc12.O=C(O)C(F)(F)F (stereo unspecified)	Percent Effect	12
CC(C)(C)c1noc(CCCC(=O)N2CCCC(c3ccn[nH]3)C2)n1 (stereo unspecified)	Percent Effect	-44.28
Cc1ccccc1-c1cncc(C2CCN(C3CCOCC3)CC2)n1	Percent Effect	-12.97
COCC1CN(Cc2cccc(C#N)c2)Cc2nccn2C1 (stereo unspecified)	Percent Effect	20.19
Cc1ccc2c(c1)C1(CCNCC1)CC2N1CCOCC1 (stereo unspecified)	Percent Effect	11.46
C/N=C1/c2cc3cc(OC)ccc3n2CCN1C	Percent Effect	-16.2
Cn1cncc1CNC1CC2(CCN(CC3CC3)CC2)c2ccccc21.O=C(O)C(F)(F)F.O=C(O)C(F)(F)F (stereo unspecified)	Percent Effect	22.11
